System: MDA-MB-231
assayExplanation: Cytotoxicity against human MDA-MB-231 cells assessed as growth inhibition by MTT assay
Format: functional, cell-based
measure: pIC50
Numbers only, as −log10 of the molar value.

Return reported pIC50; argument: "COc1cccc2c1C(=O)c1c(O)c3c(c(O)c1C2=O)C[C@@](O)(C(=O)CO)C[C@@H]3O[C@H]1C[C@H](N)[C@H](O)[C@H](C)O1" 6.00

---

For each entry below, report its viability at 25 µM value.
assayExplanation: Cytotoxicity against HEK293 cells assessed as cell growth at 25 uM by MTT assay
Assay type: cell-based
details: human, read-out: Activity

Working through the 3 compounds below one at a time, give viability at 25 µM for each.
1. COc1ccc(OC)c(-c2nnc(NCc3ccccc3)s2)c1
2. COc1ccc(OC)c(-c2nnc(Cl)s2)c1
3. COc1ccc(OC)c(-c2nnc(-c3ccc(C)c([N+](=O)[O-])c3)s2)c1

["< 74.5%", "> 74.5%", "> 74.5%"]

Working through the 3 compounds below one at a time, give viability at 25 µM for each.
1. COc1ccc(OC)c(-c2nnc(N3CCOCC3)s2)c1
2. COc1ccc(OC)c(-c2nnc(N3CCCC3)s2)c1
3. CCN1CCN(c2nnc(-c3cc(OC)ccc3OC)s2)CC1

1. > 74.5%
2. > 74.5%
3. > 74.5%

Return reported viability at 25 µM; argument: "COc1ccc(OC)c(-c2nnc(NCc3ccc(Br)cc3)s2)c1" < 74.5%

---

Test system: Mycolicibacterium smegmatis
assayExplanation: Anti-tubercular activity against Mycobacterium smegmatis str. MC2 155
Assay type: functional, organism-based
measure: pIC50
One number for each entry, as −log10 of the molar value.

compound=COc1ccc(OC)c(-c2nnc(NCc3ccccc3)s2)c1 experimentalvalue=4.12

Working through the 4 compounds below one at a time, give pIC50 for each.
1. NNC(=O)c1ccncc1 [ISONIAZID]
2. COc1ccc(OC)c(-c2nnc(NCc3cccc(C(F)(F)F)c3)s2)c1
3. COc1ccc(CN2CCN(c3nnc(-c4cc(OC)ccc4OC)s3)CC2)cc1
4. CO[C@H]1/C=C/O[C@@]2(C)Oc3c(C)c(O)c4c(O)c(c(/C=N/N5CCN(C)CC5)c(O)c4c3C2=O)NC(=O)/C(C)=C\C=C\[C@H](C)[C@H](O)[C@@H](C)[C@@H](O)[C@@H](C)[C@H](OC(C)=O)[C@@H]1C [RIFAMPIN]

4.80
4.39
4.10
5.73

---

Test system: Mycolicibacterium smegmatis
assayExplanation: Anti-tubercular activity against Mycobacterium smegmatis str. MC2 155
Assay type: functional, organism-based
measure: IC50 (µM)
Answers are plain numbers, in µM.

structurestring=COc1ccc(OC)c(-c2nnc(Cl)s2)c1 measure=IC50 experimentalvalue=75.6
structurestring=COc1ccc(OC)c(-c2nnc(N3CCC(Cc4ccccc4)CC3)s2)c1 measure=IC50 experimentalvalue=65.7

Lab note: next compound to report on.
Return reported IC50; argument: "COc1ccc(OC)c(-c2nnc(N3CCNCC3)s2)c1" 88.1

---

assayExplanation: Cytotoxicity against HEK293 cells assessed as cell growth at 25 uM by MTT assay
Format: cell-based
details: human, read-out: Activity
For each entry below, report its viability at 25 µM value.

Known viability at 25 µM results, listed for orientation:
molecule=COc1ccc(OC)c(-c2nnc(-n3ccnc3)s2)c1 measure="viability at 25 µM" experimentalvalue="> 74.5%"
molecule=COc1ccc(OC)c(-c2nnc(N)s2)c1 measure="viability at 25 µM" experimentalvalue="> 74.5%"
molecule=COc1ccc(OC)c(-c2nnc(N3CCNCC3)s2)c1 measure="viability at 25 µM" experimentalvalue="> 74.5%"
molecule=COc1ccc(OC)c(-c2nnc(N3CCC(Cc4ccccc4)CC3)s2)c1 measure="viability at 25 µM" experimentalvalue="> 74.5%"
molecule=COc1ccc(OC)c(CNc2nnc(-c3cc(OC)ccc3OC)s2)c1 measure="viability at 25 µM" experimentalvalue="> 74.5%"

Working through the 7 molecules below one at a time, give viability at 25 µM for each.
1. COc1ccc(OC)c(-c2nnc(NCc3cccc(C(F)(F)F)c3)s2)c1
2. COc1ccc(CN2CCN(c3nnc(-c4cc(OC)ccc4OC)s3)CC2)cc1
3. COc1ccc(OC)c(-c2nnc(N3CCCCC3)s2)c1
4. COc1ccc(OC)c(-c2nnc(NCc3ccc(Cl)cc3)s2)c1
5. COc1ccc(OC)c(-c2nnc(N3CCCC(O)C3)s2)c1 (configuration not stated)
6. COc1ccc(OC)c(-c2nnc(N3CCC(=O)CC3)s2)c1
7. COc1ccc(OC)c(-c2nnc(-n3ccc4cc(OC)ccc43)s2)c1

1. < 74.5%
2. > 74.5%
3. > 74.5%
4. < 74.5%
5. > 74.5%
6. > 74.5%
7. > 74.5%

---

Test system: Mycolicibacterium smegmatis
assayExplanation: Anti-tubercular activity against Mycobacterium smegmatis str. MC2 155 relative to untreated control
Assay type: functional
measure: inhibition (INH)

Known inhibition (INH) results, listed for orientation:
compound=COc1ccc(CN2CCN(c3nnc(-c4cc(OC)ccc4OC)s3)CC2)cc1 measuredtarget="Mycolicibacterium smegmatis" experimentalvalue=>=30%
compound=COc1ccc(OC)c(-c2nnc(NCc3ccccc3)s2)c1 measuredtarget="Mycolicibacterium smegmatis" experimentalvalue=>=30%
compound=CCN1CCN(c2nnc(-c3cc(OC)ccc3OC)s2)CC1 measuredtarget="Mycolicibacterium smegmatis" experimentalvalue=>=30%
compound=COc1ccc(OC)c(-c2nnc(NCc3cccc(C(F)(F)F)c3)s2)c1 measuredtarget="Mycolicibacterium smegmatis" experimentalvalue=>=30%

Working through the 8 compounds below one at a time, give inhibition (INH) for each.
1. COc1ccc(OC)c(-c2nnc(N3CCCC(O)C3)s2)c1 (centres undefined)
2. COc1ccc(OC)c(-c2nnc(N3CCC(=O)CC3)s2)c1
3. COc1ccc(OC)c(-c2nnc(N3CCNCC3)s2)c1
4. COc1ccc(OC)c(-c2nnc(NCc3ccc(Br)cc3)s2)c1
5. COc1ccc(OC)c(-c2nnc(NCc3ccc(Cl)cc3)s2)c1
6. COc1ccc(OC)c(-c2nnc(N3CCC(Cc4ccccc4)CC3)s2)c1
7. COc1ccc(OC)c(-c2nnc(N)s2)c1
8. COc1ccc(OC)c(-c2nnc(Cl)s2)c1

1: >=30%; 2: >=30%; 3: >=30%; 4: >=30%; 5: >=30%; 6: >=30%; 7: >=30%; 8: >=30%

Working through the 2 compounds below one at a time, give inhibition (INH) for each.
1. COc1ccc(OC)c(-c2nnc(N3CCOCC3)s2)c1
2. COc1ccc(OC)c(CNc2nnc(-c3cc(OC)ccc3OC)s2)c1

[">=30%", ">=30%"]

---

System: Mycolicibacterium smegmatis
assayExplanation: Anti-tubercular activity against Mycobacterium smegmatis str. MC2 155
Format: functional, organism-based
pIC50: −log10 of the molar value.
measure: pIC50

Working through the 3 compounds below one at a time, give pIC50 for each.
1. CCN1CCN(c2nnc(-c3cc(OC)ccc3OC)s2)CC1
2. COc1ccc(OC)c(-c2nnc(N3CCCC(O)C3)s2)c1 (stereo not drawn)
3. COc1ccc(OC)c(-c2nnc(NCc3ccc(Cl)cc3)s2)c1

["< 4.00", "< 4.00", "< 4.00"]
